Entry source: ChEMBL document CHEMBL1135750

experimental details: AUC in monkey
Assay type: ADME
Parameters: concentration or dose not given beside the values
measurement setup: simiiformes, plasma
measured quantity: AUC (µM·h)

A = O=CN(O)C(CS(=O)(=O)c1ccc(Oc2ccc(OC(F)(F)F)cc2)cc1)c1ccccn1 (stereo not given)
B = CS(=O)(=O)N1CCC[C@H]1[C@@H](CS(=O)(=O)c1ccc(Oc2ccc(OC(F)(F)F)cc2)cc1)N(O)C=O
Query string: A or B : whose AUC is greater? Which one? Tell me its label.
Result string: B
(B: 24 µM·h, A: 1 µM·h)

A = CN1C(=O)N(CC(CS(=O)(=O)c2ccc(Oc3ccc(OC(F)(F)F)cc3)cc2)N(O)C=O)C(=O)C1(C)C (stereo not given)
B = CC1(C)NC(=O)N(CC(CS(=O)(=O)c2ccc(Oc3ccc(OC(F)(F)F)cc3)cc2)N(O)C=O)C1=O (stereo not given)
Query string: Field: lower AUC | Options: A / B Which one? Tell me its label.
Result string: A
(A: 1 µM·h, B: 8 µM·h)

====

experimental details: Area under the curve (AUC) after 3 mg/kg peroral administration in cynomolgus monkey
Type: ADME, organism-based, Macaca fascicularis
Parameters: dose 3 mg/kg, route oral
measurement setup: in vivo, po
measured quantity: AUC (µM·h)
Hi! Could you send only the number? It should be in µM·h, unit omitted.

Query string: I'd like to know its AUC. The molecule in question is O=CN(O)C(CS(=O)(=O)c1ccc(Oc2ccc(OC(F)(F)F)cc2)cc1)C1CCC2(CC1)OCCO2 (stereo unspecified)
Result string: 28

====

experimental details: Half life measured as t1/2 in hours after iv administration in cynomolgus monkey
Format: ADME, organism-based, Macaca fascicularis
measurement setup: in vivo
measured quantity: half-life (h)

Recorded half-life, per entry:
>>> df
                                   compound  readout_number
0  CC1(C)NC(=O)N(CC(CS(=O)(=O)c2ccc(Oc3ccc(Cl)cc3)cc2)N(O)C=O)C1=O (configuration not stated)             5.6
1  CC1(C)NC(=O)N(CC(CS(=O)(=O)c2ccc(-c3ccc(C#N)cc3)cc2)N(O)C=O)C1=O (configuration not stated)             1.1
2  CC1(C)NC(=O)N(CC(CS(=O)(=O)c2ccc(-c3ccc(C(F)(F)F)cc3)cc2)N(O)C=O)C1=O (configuration not stated)             3.4
3  O=CN(O)C(CO)CS(=O)(=O)c1ccc(Oc2ccc(OC(F)(F)F)cc2)cc1 (configuration not stated)               1
4  C[C@@H]1OC(C)(C)OC1[C@@H](CS(=O)(=O)c1ccc(Oc2ccc(OC(F)(F)F)cc2)cc1)N(O)C=O (some centres not stated)            19.5
5  CN1C(=O)N(CC(CS(=O)(=O)c2ccc(Oc3ccc(Cl)cc3)cc2)N(O)C=O)C(=O)C1(C)C (configuration not stated)            11.7

1 = O=CN(O)C(CS(=O)(=O)c1ccc(Oc2ccc(OC(F)(F)F)cc2)cc1)C(CO)CO (configuration not stated)
2 = CC1(C)NC(=O)N(CC(CS(=O)(=O)c2ccc(-c3cccc(CC#N)c3)cc2)N(O)C=O)C1=O (configuration not stated)
Query string: Field: lower half-life | Options: 1 / 2 Which one? Tell me its label.
Result string: 2
(2: 0.5 h, 1: 1.9 h)

====

experimental details: AUC in monkey
Type: ADME
Parameters: concentration or dose not given beside the values
measurement setup: simiiformes, plasma
measured quantity: AUC (µM·h)

Recorded AUC, per entry:
In [3]: df
Out[3]:
                                   molecule  readout_number
0  CC1(C)NC(=O)N(CC(CS(=O)(=O)c2ccc(-c3ccc(OC(F)(F)F)cc3)cc2)N(O)C=O)C1=O (configuration not stated)               5
1  O=CN(O)C(CS(=O)(=O)c1ccc(Oc2ccc(OC(F)(F)F)cc2)cc1)[C@H](O)CO (some centres not stated)               3
2  CN(C)S(=O)(=O)CC(CS(=O)(=O)c1ccc(Oc2ccc(OC(F)(F)F)cc2)cc1)N(O)C=O (configuration not stated)               4
3  CC1(C)NC(=O)N(CC(CS(=O)(=O)c2ccc(Oc3ccc(Cl)cc3)cc2)N(O)C=O)C1=O (configuration not stated)              17
4  O=CN(O)C(CS(=O)(=O)c1ccc(Oc2ccc(OC(F)(F)F)cc2)cc1)C1CCCO1 (configuration not stated)              26
5  CS(=O)(=O)N1CCN(CCC(CS(=O)(=O)c2ccc(Oc3ccc(OC(F)(F)F)cc3)cc2)N(O)C=O)CC1 (configuration not stated)              41

a = O=CN(O)C(CS(=O)(=O)c1ccc(Oc2ccc(OC(F)(F)F)cc2)cc1)CS(=O)(=O)N1CCOCC1 (configuration not stated)
b = Cn1ccc(=O)n(CC(CS(=O)(=O)c2ccc(Oc3ccc(OC(F)(F)F)cc3)cc2)N(O)C=O)c1=O (configuration not stated)
c = C[C@@H]1OC(C)(C)OC1[C@@H](CS(=O)(=O)c1ccc(Oc2ccc(OC(F)(F)F)cc2)cc1)N(O)C=O (some centres not stated)
Query string: Please rank these molecules by AUC in descending order. Answer by listing the labels in the requested order.
Result string: c, b, a
(c: 21 µM·h, b: 11 µM·h, a: 3 µM·h)

====

The following molecules have recorded pIC50 on 72 kDa type IV collagenase (Homo sapiens, UniProt P08253).
Sequence (P08253 whole entry): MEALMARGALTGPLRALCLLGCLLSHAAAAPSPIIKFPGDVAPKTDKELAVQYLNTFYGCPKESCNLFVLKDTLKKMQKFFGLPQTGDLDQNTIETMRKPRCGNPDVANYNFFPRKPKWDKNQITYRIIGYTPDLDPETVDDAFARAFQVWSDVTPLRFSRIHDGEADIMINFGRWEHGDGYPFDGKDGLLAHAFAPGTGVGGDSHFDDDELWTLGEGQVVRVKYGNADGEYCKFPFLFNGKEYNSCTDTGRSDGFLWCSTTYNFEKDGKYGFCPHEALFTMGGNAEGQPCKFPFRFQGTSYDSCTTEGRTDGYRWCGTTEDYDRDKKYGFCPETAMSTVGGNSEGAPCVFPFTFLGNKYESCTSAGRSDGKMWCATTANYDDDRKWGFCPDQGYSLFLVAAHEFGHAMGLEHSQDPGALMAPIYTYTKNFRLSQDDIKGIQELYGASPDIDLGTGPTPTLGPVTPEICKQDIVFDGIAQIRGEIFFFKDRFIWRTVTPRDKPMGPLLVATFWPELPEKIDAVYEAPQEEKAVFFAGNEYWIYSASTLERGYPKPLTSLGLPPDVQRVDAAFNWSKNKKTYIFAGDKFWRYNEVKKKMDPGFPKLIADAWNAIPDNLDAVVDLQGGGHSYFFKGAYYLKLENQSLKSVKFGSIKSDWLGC
pIC50: −log10 of the molar value.
measured quantity: pIC50

Recorded pIC50, per entry:
>>> df
                                   molecule  readout_number
0  COC(=O)c1ccc(CCC(CS(=O)(=O)c2ccc(Oc3ccc(OC(F)(F)F)cc3)cc2)N(O)C=O)cc1 (stereo not given)            7.47
1  CN(C)S(=O)(=O)CC(CS(=O)(=O)c1ccc(Oc2ccc(OC(F)(F)F)cc2)cc1)N(O)C=O (stereo not given)           10.01

1 = O=CN(O)C(CCc1ccc(C(=O)O)cc1)CS(=O)(=O)c1ccc(Oc2ccc(OC(F)(F)F)cc2)cc1 (stereo not given)
2 = O=CN(O)C(CSc1cccs1)CS(=O)(=O)c1ccc(Oc2ccc(OC(F)(F)F)cc2)cc1 (stereo not given)
Query string: Field: lower pIC50 | Options: 1 / 2 Which one? Tell me its label.
Result string: 2
(2: 8.44, 1: 9.28)

1 = O=CN(O)C(CCN1CCOCC1)CS(=O)(=O)c1ccc(Oc2ccc(OC(F)(F)F)cc2)cc1 (stereo not given)
2 = CC1(C)OC[C@@H]([C@@H](CS(=O)(=O)c2ccc(Oc3ccc(OC(F)(F)F)cc3)cc2)N(O)C=O)O1 (stereo in doubt; 19x)
Query string: Field: lower pIC50 | Options: 1 / 2 Which one? Tell me its label.
Result string: 2

A = CN(C)CC(CS(=O)(=O)c1ccc(Oc2ccc(OC(F)(F)F)cc2)cc1)N(O)C=O (stereo not given)
B = CC1(C)OC[C@H]([C@@H](CS(=O)(=O)c2ccc(Oc3ccc(OC(F)(F)F)cc3)cc2)N(O)C=O)O1 (stereo in doubt)
C = O=CN(O)C(CS(=O)(=O)c1ccc(Oc2ccc(OC(F)(F)F)cc2)cc1)CS(=O)(=O)N1CCOCC1 (stereo not given)
Query string: Please rank these molecules by pIC50 in descending order. Answer by listing the labels in the requested order.
Result string: C, B, A

====

measured target: UniProt:P08254
Sequence (P08254 whole entry): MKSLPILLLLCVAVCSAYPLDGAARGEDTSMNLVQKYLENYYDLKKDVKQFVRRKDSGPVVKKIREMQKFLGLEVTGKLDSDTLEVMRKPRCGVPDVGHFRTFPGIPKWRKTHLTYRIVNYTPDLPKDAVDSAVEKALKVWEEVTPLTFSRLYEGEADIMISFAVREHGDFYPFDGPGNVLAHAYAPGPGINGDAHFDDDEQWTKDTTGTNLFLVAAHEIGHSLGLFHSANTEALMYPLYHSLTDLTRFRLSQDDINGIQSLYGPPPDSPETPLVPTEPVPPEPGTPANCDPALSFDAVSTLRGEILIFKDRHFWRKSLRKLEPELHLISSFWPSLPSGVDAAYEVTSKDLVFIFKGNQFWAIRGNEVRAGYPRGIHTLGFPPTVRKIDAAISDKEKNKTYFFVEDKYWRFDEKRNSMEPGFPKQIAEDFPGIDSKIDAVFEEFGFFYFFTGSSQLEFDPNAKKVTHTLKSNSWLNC
measured quantity: IC50 (nM)
Hi! Could you send only the number? It should be in nM, unit omitted.

Query string: I'd like to know its IC50. The molecule in question is CC1(C)OC[C@H]([C@@H](CS(=O)(=O)c2ccc(Oc3ccc(OC(F)(F)F)cc3)cc2)N(O)C=O)O1 (stereo in doubt)
Result string: 12

====

measured target: 72 kDa type IV collagenase (Homo sapiens, UniProt P08253)
measured quantity: IC50 (nM)

Recorded IC50, per entry:
In [3]: df
Out[3]:
                                   molecule  measured_quantity  readout_number
0  O=CN(O)C(CS(=O)(=O)c1ccc(Oc2ccc(OC(F)(F)F)cc2)cc1)C1CCC2(CC1)OCCO2 (stereo not drawn)               IC50            0.42
1  CC1(C)NC(=O)N(CC(CS(=O)(=O)c2ccc(-c3cccc(CC#N)c3)cc2)N(O)C=O)C1=O (stereo not drawn)               IC50            0.35
2  CC1(C)NC(=O)N(CC(CS(=O)(=O)c2ccc(Oc3ccc(C#N)cc3)cc2)N(O)C=O)C1=O (stereo not drawn)               IC50            0.93

P = O=CN(O)C(CS(=O)(=O)c1ccc(Oc2ccc(OC(F)(F)F)cc2)cc1)c1ccccn1 (stereo not drawn)
Q = CC1(C)OC[C@@H]([C@@H](CS(=O)(=O)c2ccc(Oc3ccc(OC(F)(F)F)cc3)cc2)N(O)C=O)O1 (stereo in doubt; 19v)
Query string: P or Q : whose IC50 is greater? Which one? Tell me its label.
Result string: Q
(Q: 6.3 nM, P: 1.7 nM)

A = Cn1ccc(=O)n(CC(CS(=O)(=O)c2ccc(Oc3ccc(OC(F)(F)F)cc3)cc2)N(O)C=O)c1=O (stereo not drawn)
B = O=CN(O)C(CS(=O)(=O)c1ccc(Oc2ccc(OC(F)(F)F)cc2)cc1)c1ccc(C(F)(F)F)cc1 (stereo not drawn)
C = CN(CC(CS(=O)(=O)c1ccc(Oc2ccc(OC(F)(F)F)cc2)cc1)N(O)C=O)S(C)(=O)=O (stereo not drawn)
Query string: rank_up(items): orders items by reported IC50 in ascending numerical order. Answer by listing the labels in the requested order.
Result string: A, C, B
